The measured values listed here are drawn from patent US4861778A.

- Tested on: serum cholesterol and serum triglyceride
- experiment.summary: Hypolipidemic activity of 2,3-dihydrophthalazine-1,4-diones in normal male mice (Example 11, Table II)
- Type: in vivo, CF1 male mice
- experimental.context: Mus musculus, ip, 216 h; CF1 male mice, 20 mg/kg/day intraperitoneally, Day 9; read-out: Serum Cholesterol Day 9, percent control ± standard deviation
Recorded response vs control in vivo at 20 mg/kg/day for the following molecules
Note: unit % is implicit; provide only the numeric part.

molecule	measured.target	endpoint.value
COc1cccc2c(=O)[nH]nc(O)c12 [Compound 16]	serum cholesterol and serum triglyceride	82
Cc1ccccc1-n1nc(O)c2ccccc2c1=O [Compound 25]	serum cholesterol and serum triglyceride	82
Cc1ccc(-n2nc(O)c3ccccc3c2=O)cc1 [Compound 27]	serum cholesterol and serum triglyceride	89
CCCn1[nH]c(=O)c2ccccc2c1=O [Compound 6]	serum cholesterol and serum triglyceride	77

# evaluate next
Qu. Please look at this molecule and report its response vs control in vivo at 20 mg/kg/day: CC(=O)CCn1[nH]c(=O)c2ccccc2c1=O [Compound 20]
Ans. 72

====

- Tested on: serum cholesterol and serum triglyceride
- experiment.summary: Hypolipidemic activity of 2,3-dihydrophthalazine-1,4-diones in normal male mice (Example 11, Table II)
- Format: in vivo, CF1 male mice
- experimental.context: Mus musculus, ip, 384 h; CF1 male mice, 20 mg/kg/day intraperitoneally, Day 16; read-out: Serum Triglyceride Day 16, percent control ± standard deviation
Field: label. Allowed values: t (response vs control in vivo at 20 mg/kg/day < 70%) or f (response vs control in vivo at 20 mg/kg/day >= 70%).

compound	category
COc1cccc2c(=O)[nH]nc(O)c12	f

Let's switch to this compound now.
Qu. response vs control in vivo at 20 mg/kg/day under 70%? Item: CCCCCOc1nn(CCCCC)c(=O)c2ccccc12
Ans. t

====

- Tested on: serum cholesterol and serum triglyceride
- experiment.summary: Hypolipidemic activity of 2,3-dihydrophthalazine-1,4-diones in normal male mice (Example 11, Table II)
- Assay type: in vivo, CF1 male mice
- experimental.context: Mus musculus, ip, 384 h; CF1 male mice, 20 mg/kg/day intraperitoneally, Day 16; read-out: Serum Triglyceride Day 16, percent control ± standard deviation
quantity.name: response vs control in vivo at 20 mg/kg/day (%)
Note: unit % is implicit; provide only the numeric part.

Qu. Write down measured response vs control in vivo at 20 mg/kg/day (serum cholesterol and serum triglyceride) for this molecule. CC(=O)CCn1[nH]c(=O)c2ccccc2c1=O
Ans. 70

Qu. Write down measured response vs control in vivo at 20 mg/kg/day (serum cholesterol and serum triglyceride) for this molecule. Cc1ccc2c(=O)[nH][nH]c(=O)c2c1
Ans. 54

Qu. Write down measured response vs control in vivo at 20 mg/kg/day (serum cholesterol and serum triglyceride) for this molecule. Cc1cccc(-n2nc(O)c3ccccc3c2=O)c1
Ans. 65

Qu. Write down measured response vs control in vivo at 20 mg/kg/day (serum cholesterol and serum triglyceride) for this molecule. Cc1ccccc1-n1nc(O)c2ccccc2c1=O
Ans. 76

Qu. Write down measured response vs control in vivo at 20 mg/kg/day (serum cholesterol and serum triglyceride) for this molecule. CCOC(=O)Cn1[nH]c(=O)c2ccccc2c1=O
Ans. 73

Qu. Write down measured response vs control in vivo at 20 mg/kg/day (serum cholesterol and serum triglyceride) for this molecule. CCn1[nH]c(=O)c2ccccc2c1=O [Compound 4, 2-Ethyl-2,3-Dihydrophthalazine-1,4-Dione]
Ans. 59

Qu. Write down measured response vs control in vivo at 20 mg/kg/day (serum cholesterol and serum triglyceride) for this molecule. COc1ccc2c(=O)[nH]nc(O)c2c1
Ans. 69

Qu. Write down measured response vs control in vivo at 20 mg/kg/day (serum cholesterol and serum triglyceride) for this molecule. O=C(O)CCn1[nH]c(=O)c2ccccc2c1=O
Ans. 60

Qu. Write down measured response vs control in vivo at 20 mg/kg/day (serum cholesterol and serum triglyceride) for this molecule. CCCCOc1nn(CCCC)c(=O)c2ccccc12
Ans. 66

Qu. Write down measured response vs control in vivo at 20 mg/kg/day (serum cholesterol and serum triglyceride) for this molecule. CCCn1[nH]c(=O)c2ccccc2c1=O
Ans. 62
